This collection of values is drawn from ChEMBL document CHEMBL3046516.

- Test system: Cnaphalocrocis medinalis
- ASSAY_METHOD_TEXT: Antifeedant activity against 4 hr starved fifth-instar larval stage of Cnaphalocrocis medinalis infested compound-treated rice leaves assessed as consumption index at 1 ppm measured every 24 hr for 4 days by gravimetric method (reference value: 2.52 +/- 0.15 mg/mg/day)
- Type: functional
Decision: Activity compared against 2 mg/mg/day; not below it gives Criterion met, below it gives Criterion not met.

1. CC(=O)O[C@@H]1C[C@H]2C(C)(C)C(=O)C=C[C@]2(C)[C@H]2CC[C@]3(C)C(=CC(=O)[C@@]3(O)c3ccoc3)[C@@]21C [17-HYDROXYAZADIRADIONE] ... Criterion met
2. COC(=O)C[C@H]1[C@]2(C)C3=C(C)[C@H](c4ccoc4)C[C@H]3O[C@@H]2[C@H](O)[C@@H]2[C@]1(C)C(=O)C=C[C@@]2(C)C(=O)OC ... Criterion met
3. C/C=C(\C)C(=O)O[C@H]1C[C@@H](OC(C)=O)[C@@]2(C(=O)OC)CO[C@H]3[C@@H](O)[C@@](C)([C@]45O[C@@]4(C)[C@@H]4C[C@H]5O[C@@H]5OC=C[C@@]54O)[C@H]4[C@]1(CO[C@]4(O)C(=O)OC)[C@@H]32 ... Criterion not met
4. C/C=C(/C)C(=O)O[C@H]1C[C@@H](OC(C)=O)[C@@]2(C)CO[C@H]3[C@H]4O[C@@H]5C[C@@H](c6ccoc6)C(C)=C5[C@@]4(C)[C@H](CC(=O)OC)[C@]1(C)[C@@H]32 ... Criterion not met
5. CC1(C)C(=O)C=C[C@]2(C)[C@H]3CC[C@@]4(C)[C@H](c5ccoc5)OC(=O)[C@H]5O[C@]54[C@]3(C)[C@H](O)C[C@@H]12 ... Criterion met
6. CC(=O)O[C@@H]1C[C@H]2C(C)(C)C(=O)C=C[C@]2(C)[C@H]2CC[C@@]3(C)[C@H](c4ccoc4)OC(=O)[C@H]4O[C@]43[C@@]21C ... Criterion met
